# ASSAYED_TARGET: EGFR wild type (Homo sapiens, UniProt P00533)
# Construct: purchased Carna Bio
# Sequence (P00533 25-1210): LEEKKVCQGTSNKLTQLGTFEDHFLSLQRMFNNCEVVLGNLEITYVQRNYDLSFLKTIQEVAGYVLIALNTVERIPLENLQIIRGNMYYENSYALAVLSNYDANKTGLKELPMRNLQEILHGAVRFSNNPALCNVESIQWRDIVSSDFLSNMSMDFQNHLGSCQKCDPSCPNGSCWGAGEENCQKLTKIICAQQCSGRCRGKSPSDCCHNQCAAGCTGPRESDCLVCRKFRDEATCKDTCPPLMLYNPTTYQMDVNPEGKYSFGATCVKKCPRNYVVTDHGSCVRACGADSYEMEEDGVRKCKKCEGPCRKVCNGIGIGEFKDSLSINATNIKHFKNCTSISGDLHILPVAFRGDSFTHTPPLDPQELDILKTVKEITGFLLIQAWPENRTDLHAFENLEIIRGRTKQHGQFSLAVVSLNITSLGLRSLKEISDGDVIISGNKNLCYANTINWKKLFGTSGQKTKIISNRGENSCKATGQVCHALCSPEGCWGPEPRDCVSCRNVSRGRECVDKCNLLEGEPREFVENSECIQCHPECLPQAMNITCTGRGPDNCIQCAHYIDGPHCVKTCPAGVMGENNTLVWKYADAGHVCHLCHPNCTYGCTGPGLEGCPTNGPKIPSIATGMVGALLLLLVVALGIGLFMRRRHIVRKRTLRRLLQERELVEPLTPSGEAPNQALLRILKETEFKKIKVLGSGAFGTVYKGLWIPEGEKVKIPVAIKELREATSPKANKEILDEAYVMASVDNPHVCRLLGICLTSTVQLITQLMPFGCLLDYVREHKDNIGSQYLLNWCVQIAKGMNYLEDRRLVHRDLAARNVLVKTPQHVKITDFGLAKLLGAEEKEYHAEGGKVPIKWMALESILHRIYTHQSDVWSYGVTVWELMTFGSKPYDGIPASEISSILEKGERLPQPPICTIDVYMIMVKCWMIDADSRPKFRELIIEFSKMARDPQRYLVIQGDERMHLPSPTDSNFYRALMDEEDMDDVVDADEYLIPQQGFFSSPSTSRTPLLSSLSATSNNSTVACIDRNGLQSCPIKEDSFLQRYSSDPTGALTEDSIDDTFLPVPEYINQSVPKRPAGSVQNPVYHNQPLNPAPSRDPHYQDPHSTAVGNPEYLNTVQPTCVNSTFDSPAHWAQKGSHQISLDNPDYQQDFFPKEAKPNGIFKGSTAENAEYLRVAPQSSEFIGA
# METHOD_SUMMARY: Inhibition of EGFR wild type biochemical enzymatic activity (HTRF)
# CONDITION_DESCRIPTION: EGFR WT, 1 mM ATP, 1 h, room temperature, read-out: IC50 (nM) @WT
REPORTED_ENDPOINT: IC50 (nM)

(A) CC(C)N1CCN(c2ccc3nc4n(c3c2)C23CCC(CN(CCOc5c(cnn5C)-c5cc(cn(C)c5=O)C(=O)N4)C2)C3)CC1 (single isomer, unassigned) [Example A108B]
(B) CN1CCC2(CN(c3ccc4nc5n(c4c3)C34CCC(CN(CCOc6c(cnn6C)-c6cc(cn(C)c6=O)C(=O)N5)C3)C4)C2)C(F)(F)C1 (single isomer, unassigned) [Example A91B]
(C) C[C@@H]1CCCOc2c(cnn2C)-c2cc(cn(C)c2=O)C(=O)Nc2nc3ccc(N4CCC5(CCN(C)C5)CC4)cc3n2C1
Problem: Sort the entries above by IC50, largest first. Write the labels out in the order the request specifies.
Solution: B, A, C

Data provenance is patent US20260365670A1.
